- SYSTEM NAME: human full-length MKNK1 (Homo sapiens (Human), UniProt Q9BUB5, T344D)
- Sequence (Q9BUB5 other isoform, or with tags, fused parts or gaps T344D): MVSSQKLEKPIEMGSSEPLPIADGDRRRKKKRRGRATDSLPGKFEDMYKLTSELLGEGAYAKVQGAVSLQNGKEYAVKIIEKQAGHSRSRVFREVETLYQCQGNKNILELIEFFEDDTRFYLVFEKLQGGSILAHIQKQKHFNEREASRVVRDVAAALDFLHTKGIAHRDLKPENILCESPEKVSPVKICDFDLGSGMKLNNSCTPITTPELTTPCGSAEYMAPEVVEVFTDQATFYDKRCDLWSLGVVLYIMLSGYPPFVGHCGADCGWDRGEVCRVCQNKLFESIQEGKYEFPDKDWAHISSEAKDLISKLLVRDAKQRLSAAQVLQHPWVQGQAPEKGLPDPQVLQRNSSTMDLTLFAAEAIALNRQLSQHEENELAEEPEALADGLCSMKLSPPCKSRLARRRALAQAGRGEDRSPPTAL
- TEST PROTOCOL: MKNK1 kinase high ATP assay (TR-FRET-based)
- Format: biochemical
- PROTOCOL CONDITIONS: 2 mM ATP final conc.; 15 min preincubation with enzyme
pIC50: −log10 of the molar value.
Classify by measured pIC50: label 1 if it is equal to or exceeds 8, label 0 if it is smaller.

The following molecules have reported results that may help.
                                   molecule  assigned_class
0  NC1(COc2ccc3ncc(-c4cc5ccccc5o4)n3n2)CCC1 [Example 27]         label 0
1  COc1ccc2oc(-c3cnc4ccc(OCCCN)nn34)cc2c1 [Example 9]         label 0

Would you say N[C@H]1C[C@H](Oc2ccc3ncc(-c4cc5cc(Cl)ccc5o4)n3n2)C1 [Example 37] shows pIC50 at minimum 8?
label 1

Would you mind doing C[C@H](N)COc1ccc2ncc(-c3cc4c(F)cccc4o3)n2n1 [Example 45] as well?
label 0

What do you get for Cc1ccc2oc(-c3cnc4ccc(O[C@H](C)CN)nn34)cc2c1 [Example 49] ?
label 0

Same lookup for N[C@H](COc1ccc2ncc(-c3cc4ccccc4o3)n2n1)Cc1ccccc1 [Example 50] , please.
label 0

Next entry: N[C@H]1C[C@H](Oc2ccc3ncc(-c4cc5c(F)cccc5o4)n3n2)C1 [Example 36]
label 1

---

- SYSTEM NAME: human full-length MKNK1 (Homo sapiens (Human), UniProt Q9BUB5, T344D)
- TEST PROTOCOL: MKNK1 kinase assay (MKNK1 TR-FRET assay)
- Format: biochemical
- PROTOCOL CONDITIONS: 10 μM ATP final conc.; 15 min preincubation with enzyme
QUANTITY NAME: IC50 (µM)
Use µM as the unit, but write only the number.

Here is how some compounds turned out for IC50.
                                   compound    val
0  NC(COc1ccc2ncc(-c3cc4ccccc4o3)n2n1)c1cccnc1 (stereo not shown)  0.054
1  N[C@H](COc1ccc2ncc(-c3cc4c(F)cccc4o3)n2n1)c1ccccc1  0.036
2  NCC(Oc1ccc2ncc(-c3cc4ccccc4o3)n2n1)C1CCOC1 (stereo not shown)  0.032

Query compound follows.
Please give the measured IC50 for this compound: "COc1ccc2oc(-c3cnc4ccc(OCCN)nn34)cc2c1"
0.006

---

log10(IC50) reference
- SYSTEM NAME: human full-length MKNK1 (Homo sapiens (Human), UniProt Q9BUB5, T344D)
- TEST PROTOCOL: MKNK1 kinase high ATP assay (TR-FRET-based)
- Type: biochemical
- PROTOCOL CONDITIONS: 2 mM ATP final conc.; 15 min preincubation with enzyme
Use the decimal logarithm of IC50 (nM).

What value of log10(IC50) has been reported for the following compound? "N[C@H](COc1ccc2ncc(-c3cc4c(F)cccc4o3)n2n1)c1ccccc1"
1.83

Same again, this time with "COc1ccc2oc(-c3cnc4ccc(O[C@H]5C[C@H](N)C5)nn34)cc2c1"
0.78

Same thing, different compound: NCC(Oc1ccc2ncc(-c3cc4ccccc4o3)n2n1)C1CC1 (centres unmarked)
1.88

Now give it for "C[C@H](N)COc1ccc2ncc(-c3cc4ccccc4o3)n2n1" too.
1.26

Do the same for NCC(Cc1ccncc1)Oc1ccc2ncc(-c3cc4ccccc4o3)n2n1 (centres unmarked) please
1.28

Could you do the same for "C[C@H](CN)Oc1ccc2ncc(-c3cc4cc(Cl)ccc4o3)n2n1" , please?
2.29

// same read-out, input: "N[C@H]1CCC[C@H]1Oc1ccc2ncc(-c3cc4ccccc4o3)n2n1"
1.34

And what about the compound "NC[C@H]1C[C@H](Oc2ccc3ncc(-c4cc5ccccc5o4)n3n2)C1" ?
0.78
